Measured values drawn from ChEMBL document CHEMBL1134561 for this set.

System: A-431
assayText: Inhibition of human epidermoid carcinoma xenograft (A431) tumor growth
Type: functional, cell-based
Sorting guide: entries reporting IC50 beneath 100 nM go in the condition met pile, the rest go in the condition not met pile.

Use the examples below as a reference point.
>>> assignedcategory("C=C(CN1CCOCC1)C(=O)Nc1ccc2ncnc(Nc3cccc(Br)c3)c2c1")
"condition not met"
>>> assignedcategory("CN(C)/C=C/C(=O)Nc1ccc2ncnc(Nc3cccc(Br)c3)c2c1")
"condition not met"
>>> assignedcategory("C=CCN(C)CC#CC(=O)Nc1ccc2ncnc(Nc3cccc(Br)c3)c2c1")
"condition met"
>>> assignedcategory("O=C(/C=C/N1CCOCC1)Nc1ccc2ncnc(Nc3cccc(Br)c3)c2c1")
"condition not met"
>>> assignedcategory("COCOCC#CC(=O)Nc1ccc2ncnc(Nc3cccc(Br)c3)c2c1")
"condition not met"

// switching to the query molecule
Exercise: Is it true that IC50 reported for C=CC(=O)Nc1ccc2ncnc(Nc3cccc(Br)c3)c2c1 is less than 100 nM?
Key: condition met

----------
# log10(IC50) per entry for Epidermal growth factor receptor (Homo sapiens)
The base-10 logarithm of IC50, taken with IC50 in nM, is what appears here.

// known answers, use as guide
>>> measuredresult("CN(C/C=C/C(=O)Nc1ccc2ncnc(Nc3cccc(Br)c3)c2c1)CCO")
1.15
>>> measuredresult("COCOCC#CC(=O)Nc1ccc2ncnc(Nc3cccc(Br)c3)c2c1")
1.77
>>> measuredresult("COCC1CCCN1CC#CC(=O)Nc1ccc2ncnc(Nc3cccc(Br)c3)c2c1 (stereo unspecified)")
1.81
>>> measuredresult("O=C(/C=C/CN1CCSCC1)Nc1ccc2ncnc(Nc3cccc(Br)c3)c2c1")
2.31
>>> measuredresult("COC/C=C/C(=O)Nc1ccc2ncnc(Nc3cccc(Br)c3)c2c1")
3.05
>>> measuredresult("O=C(C#CCN1CCOCC1)Nc1ccc2ncnc(Nc3cccc(Br)c3)c2c1")
1.30
>>> measuredresult("O=C(/C=C/CN1CCOCC1)Nc1ccc2ncnc(Nc3cccc(Br)c3)c2c1")
1.87
>>> measuredresult("O=C(/C=C/N1CCOCC1)Nc1ccc2ncnc(Nc3cccc(Br)c3)c2c1")
2.33
>>> measuredresult("COC[C@@H]1CCCN1C/C=C/C(=O)Nc1ccc2ncnc(Nc3cccc(Br)c3)c2c1")
2.12
>>> measuredresult("O=C(/C=C/Cn1cccn1)Nc1ccc2ncnc(Nc3cccc(Br)c3)c2c1")
3.05

Exercise: Requested read-out log10(IC50), target or system Epidermal growth factor receptor (Homo sapiens), entry C=C(CN1CCOCC1)C(=O)Nc1ccc2ncnc(Nc3cccc(Br)c3)c2c1
Key: 2.03

Exercise: Could you do the same for O=C(C#CCN1CCSCC1)Nc1ccc2ncnc(Nc3cccc(Br)c3)c2c1 , please?
Key: 1.98

Exercise: Could you do the same for COCCN(C)C/C=C/C(=O)Nc1ccc2ncnc(Nc3cccc(Br)c3)c2c1 , please?
Key: 1.79

Exercise: Could you do the same for CCN(CC)C/C=C/C(=O)Nc1ccc2ncnc(Nc3cccc(Br)c3)c2c1 , please?
Key: 1.86

Exercise: Could you do the same for CCN1CCN(CC#CC(=O)Nc2ccc3ncnc(Nc4cccc(Br)c4)c3c2)CC1 , please?
Key: 1.81

Exercise: Could you do the same for COCCOCC#CC(=O)Nc1ccc2ncnc(Nc3cccc(Br)c3)c2c1 , please?
Key: 1.81

Exercise: Could you do the same for O=C(C#CCN1CCCCC1)Nc1ccc2ncnc(Nc3cccc(Br)c3)c2c1 , please?
Key: 1.76

Exercise: Could you do the same for COC[C@H]1CCCN1C/C=C/C(=O)Nc1ccc2ncnc(Nc3cccc(Br)c3)c2c1 , please?
Key: 1.93

----------
# pIC50 per entry for Epidermal growth factor receptor (Homo sapiens)
Notebook: values listed as pIC50 are -log10 of the concentration (mol/L).

// known answers, use as guide
>>> measuredresult("O=C(/C=C/CN1CCCCC1)Nc1ccc2ncnc(Nc3cccc(Br)c3)c2c1")
6.97
>>> measuredresult("O=C(/C=C/CN1CCC(N2CCCCC2)CC1)Nc1ccc2ncnc(Nc3cccc(Br)c3)c2c1")
7.17

Now let's try a different one.
Exercise: // lookup pIC50 for CCCN(CC#CC(=O)Nc1ccc2ncnc(Nc3cccc(Br)c3)c2c1)CCC
Key: 7.21
